Provide the recorded Ki for the entries that follow.
Target: Adenosine receptor A2a (Homo sapiens)
Assay: Displacement of [3H]ZM241385 from human recombinant adenosine A2A receptor expressed in human HeLa cells by microplate beta scintillation counter
For clarity, give the value followed by its unit.

As a guide, the following entries are already answered.
INSERT INTO assay_data (chemical_string, measurement_target, obs_value) VALUES
  ('CCn1c(=O)c2c(nc(Cc3cccs3)n2C)n(Cc2ccccc2)c1=O', 'Adenosine receptor A2a (Homo sapiens)', '759 nM'),
  ('CCCn1c(=O)c2[nH]c(-c3ccccc3)nc2n(CCSCC)c1=O', 'Adenosine receptor A2a (Homo sapiens)', '1450 nM'),
  ('CCn1c(=O)c2[nH]c(Cc3cccs3)nc2n(Cc2cccs2)c1=O', 'Adenosine receptor A2a (Homo sapiens)', '3980 nM'),
  ('CCn1c(=O)c2c(nc(Cc3cccs3)n2C)n(Cc2cccs2)c1=O', 'Adenosine receptor A2a (Homo sapiens)', '123 nM'),
  ('CCn1c(=O)c2c(nc(Cc3ccco3)n2C)n(Cc2cccs2)c1=O', 'Adenosine receptor A2a (Homo sapiens)', '219 nM'),
  ('CCn1c(=O)c2c(nc(Cc3ccco3)n2C)n(Cc2ccccc2)c1=O', 'Adenosine receptor A2a (Homo sapiens)', '1740 nM');

Query block: # query: Ki of entry `CCn1c(=O)c2c(nc(Cc3c(F)cccc3F)n2C)n(Cc2cccs2)c1=O`
Result block: 178 nM

###

I'd be grateful if you could share measured Ratio Ki for these entries.
Organism: Homo sapiens
Assay: Selectivity ratio of Ki for human adenosine A1 receptor to Ki for human adenosine A2B receptor

Past entries and their recorded results:
INSERT INTO assay_data (chemical_string, obs_value) VALUES
  ('CCn1c(=O)c2[nH]c(Cc3cccs3)nc2n(Cc2cccs2)c1=O', 4.9),
  ('CCn1c(=O)c2c(nc(Cc3cccs3)n2C)n(Cc2ccccc2)c1=O', 1.1),
  ('CCn1c(=O)c2c(nc(Cc3c(F)cccc3F)n2C)n(Cc2cccs2)c1=O', 0.9),
  ('CCn1c(=O)c2c(nc(Cc3cccs3)n2C)n(Cc2cccs2)c1=O', 2.7),
  ('CCSCCn1c(=O)n(CC)c(=O)c2[nH]c(-c3ccccc3)nc21', 0.3),
  ('CCCn1c(=O)c2[nH]c(-c3ccccc3)nc2n(CCSCC)c1=O', 0.5);

Query block: Which Ratio Ki value is on record for `CCn1c(=O)c2c(nc(Cc3ccco3)n2C)n(Cc2cccs2)c1=O` ?
Result block: 3.7

###

Biological target: Adenosine receptor A1 (Homo sapiens)
Sequence (P30542 whole entry): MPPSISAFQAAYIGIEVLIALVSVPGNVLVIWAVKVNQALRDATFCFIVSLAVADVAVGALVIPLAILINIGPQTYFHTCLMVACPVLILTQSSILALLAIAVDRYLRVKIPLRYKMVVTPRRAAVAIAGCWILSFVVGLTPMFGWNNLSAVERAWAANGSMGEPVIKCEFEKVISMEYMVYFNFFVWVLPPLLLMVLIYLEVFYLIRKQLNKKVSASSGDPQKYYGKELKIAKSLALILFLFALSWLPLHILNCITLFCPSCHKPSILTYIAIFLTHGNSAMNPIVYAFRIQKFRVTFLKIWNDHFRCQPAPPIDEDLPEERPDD
Assay: Displacement of [3H]DPCPX from human recombinant adenosine A1 receptor expressed in CHO cells by microplate beta scintillation counter
measurement.type: Ki (µM)
One number for each entry, in µM.

Check out these entries, answers already filled in.
INSERT INTO results (compound, measurement_type, obs_value) VALUES
  ('CCn1c(=O)c2c(nc(Cc3cccs3)n2C)n(Cc2cccs2)c1=O', 'Ki', 0.0955),
  ('Cn1c(=O)c2[nH]c(-c3cccs3)nc2n(CC2CCCCC2)c1=O', 'Ki', 0.219);

Below are 2 compounds. Give each one its Ki.
1. CCCn1c(=O)c2[nH]c(-c3ccccc3)nc2n(CCSCC)c1=O
2. CCn1c(=O)c2[nH]c(Cc3cccs3)nc2n(Cc2cccs2)c1=O

Result block:
1: 0.0933; 2: 0.676

List reported Ki for each of these compounds:
1. CCn1c(=O)c2[nH]c(Cc3ccco3)nc2n(Cc2cccs2)c1=O
2. CCn1c(=O)c2c(nc(Cc3cccs3)n2C)n(Cc2ccccc2)c1=O
3. CCCn1c(=O)c2[nH]c(-c3ccccc3)nc2n(CCS(=O)(=O)CC)c1=O
4. CCSCCn1c(=O)n(CC)c(=O)c2[nH]c(-c3ccccc3)nc21
5. CCCn1c(=O)c2[nH]c(-c3ccccc3)nc2n(CC[S+]([O-])CC)c1=O (configuration not stated)

Result block:
[0.407, 0.389, 0.0933, 0.148, 0.195]

###

Biological target: Adenosine receptor A3 (Homo sapiens) (UniProt P0DMS8)
Sequence (P0DMS8 whole entry): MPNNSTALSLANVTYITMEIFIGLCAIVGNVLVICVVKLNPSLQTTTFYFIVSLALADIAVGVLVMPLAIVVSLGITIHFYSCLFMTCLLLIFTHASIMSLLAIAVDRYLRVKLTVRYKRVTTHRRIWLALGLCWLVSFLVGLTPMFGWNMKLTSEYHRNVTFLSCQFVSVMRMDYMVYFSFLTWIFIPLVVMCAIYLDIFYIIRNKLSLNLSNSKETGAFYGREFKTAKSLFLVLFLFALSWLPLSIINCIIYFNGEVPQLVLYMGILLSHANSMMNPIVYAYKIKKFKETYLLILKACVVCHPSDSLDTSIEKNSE
Assay: Displacement of [3H]NECA from human recombinant adenosine A3 receptor expressed in human HeLa cells at 1 uM by microplate beta scintillation counter
Assay type: cell-based
measurement.type: Activity (%)
One number for each entry, in %.

// known answers, use as guide
INSERT INTO assay_data (compound, measurement_target, measurement_type, output_unit, obs_value) VALUES
  ('CCn1c(=O)c2c(nc(Cc3c(F)cccc3F)n2C)n(Cc2ccccc2)c1=O', 'Adenosine receptor A3 (Homo sapiens) (UniProt P0DMS8)', 'Activity', '%', 4),
  ('CCn1c(=O)c2[nH]c(Cc3cccs3)nc2n(Cc2ccccc2)c1=O', 'Adenosine receptor A3 (Homo sapiens) (UniProt P0DMS8)', 'Activity', '%', 39),
  ('CCn1c(=O)c2c(nc(Cc3c(F)cccc3F)n2C)n(Cc2cccs2)c1=O', 'Adenosine receptor A3 (Homo sapiens) (UniProt P0DMS8)', 'Activity', '%', 20),
  ('CCSCCn1c(=O)n(CC)c(=O)c2[nH]c(-c3ccc(-c4ccccc4)cc3)nc21', 'Adenosine receptor A3 (Homo sapiens) (UniProt P0DMS8)', 'Activity', '%', 17),
  ('CCOCCn1c(=O)n(CC)c(=O)c2[nH]c(-c3ccc(-c4ccccc4)cc3)nc21', 'Adenosine receptor A3 (Homo sapiens) (UniProt P0DMS8)', 'Activity', '%', 17);

// input: 6 compounds below; output: Activity for each
1. CCSCCn1c(=O)n(CC)c(=O)c2[nH]c(Cc3ccccc3)nc21
2. CCn1c(=O)c2c(nc(Cc3cccs3)n2C)n(Cc2ccccc2)c1=O
3. CCn1c(=O)c2c(nc(Cc3ccco3)n2C)n(Cc2ccccc2)c1=O
4. O=c1c2[nH]c(-c3cccs3)nc2n(CC2CCCCC2)c(=O)n1CC1CCCCC1
5. CCCn1c(=O)c2[nH]c(-c3ccccc3)nc2n(CCOCC)c1=O
6. CCn1c(=O)c2[nH]c(Cc3ccccc3)nc2n(CCS(=O)(=O)CC)c1=O

Result block:
1. 10
2. 6
3. 14
4. 2
5. 47
6. 6

###

Target: Adenosine receptor A2a (Homo sapiens, UniProt P29274)
Sequence (P29274 whole entry): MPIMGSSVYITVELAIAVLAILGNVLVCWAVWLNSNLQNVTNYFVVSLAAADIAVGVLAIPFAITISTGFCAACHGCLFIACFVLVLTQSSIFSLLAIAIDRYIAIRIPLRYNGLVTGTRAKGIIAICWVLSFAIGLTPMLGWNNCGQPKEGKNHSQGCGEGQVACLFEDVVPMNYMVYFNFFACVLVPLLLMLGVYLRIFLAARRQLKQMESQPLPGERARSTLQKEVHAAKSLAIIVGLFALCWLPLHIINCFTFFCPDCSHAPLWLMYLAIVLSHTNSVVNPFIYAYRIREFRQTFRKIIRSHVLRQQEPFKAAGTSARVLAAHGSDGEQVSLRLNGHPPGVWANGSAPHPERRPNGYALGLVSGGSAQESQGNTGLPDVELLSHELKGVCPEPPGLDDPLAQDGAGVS
Assay: Displacement of [3H]ZM241385 from human recombinant adenosine A2A receptor expressed in human HeLa cells at 1 uM by microplate beta scintillation counter
Assay type: cell-based
measurement.type: Activity (%)
Give bare numbers, in %.

Study these solved cases before continuing.
INSERT INTO measurements (molecule, measurement_target, obs_value) VALUES
  ('CCn1c(=O)c2[nH]c(-c3ccccc3)nc2n(CC[S+]([O-])CC)c1=O (stereo not given)', 'Adenosine receptor A2a (Homo sapiens, UniProt P29274)', 20),
  ('CCCn1c(=O)c2[nH]c(-c3ccccc3)nc2n(CC2CCCO2)c1=O (stereo not given)', 'Adenosine receptor A2a (Homo sapiens, UniProt P29274)', 37),
  ('Cn1c(=O)c2[nH]c(Cc3cccs3)nc2n(CC2CCCCC2)c1=O', 'Adenosine receptor A2a (Homo sapiens, UniProt P29274)', 11);

Quick one: give me Activity for each item below, same order please.
1. CCSCCn1c(=O)n(CC)c(=O)c2[nH]c(Cc3ccccc3)nc21
2. CCCn1c(=O)c2[nH]c(-c3ccccc3)nc2n(CCS(=O)(=O)CC)c1=O

Result block:
1. 0
2. 3

###

Molecular target: Adenosine receptor A3 (Homo sapiens) (UniProt P0DMS8)
Experiment: Displacement of [3H]NECA from human recombinant adenosine A3 receptor expressed in human HeLa cells at 1 uM by microplate beta scintillation counter
Format: cell-based
If the reported Activity equals or exceeds 3%, assign true. If not, assign false.

Query block: Exam item: decide whether the reported Activity for `O=c1c2[nH]c(Cc3cccs3)nc2n(CC2CCCCC2)c(=O)n1CC1CCCCC1` is at least 3%.
Result block: true

Query block: Please tell me: is the compound `CCn1c(=O)c2[nH]c(Cc3ccco3)nc2n(Cc2cccs2)c1=O` at or over 3% in terms of Activity?
Result block: true

Query block: Is reported Activity greater than or equal to 3% here: `CCn1c(=O)c2c(nc(Cc3cccs3)n2C)n(Cc2cccs2)c1=O`
Result block: false

Query block: Form field: Activity at least 3%? Entry: `CCn1c(=O)c2[nH]c(-c3ccccc3)nc2n(CCS(=O)(=O)CC)c1=O`
Result block: true

Query block: Test whether the compound `CCCn1c(=O)c2[nH]c(Cc3ccccc3)nc2n(CCSCC)c1=O` records Activity of 3% or higher.
Result block: false

Query block: Assess whether reported Activity for `CCn1c(=O)c2c(nc(Cc3ccco3)n2C)n(Cc2cccs2)c1=O` sits at 3% or higher.
Result block: true

Query block: Exam item: decide whether the reported Activity for `CCn1c(=O)c2[nH]c(Cc3ccco3)nc2n(Cc2ccccc2)c1=O` is at least 3%.
Result block: true
